Measured kon of individual entries
- studySystem: T1, human DLL4 extracellular domain (human, UniProt Q9NR61 27-529)
- T1 construct: purified recombinant ECD; biotin-labelled or 6xHis-tagged depending on the assay; also called huDLL4 ECD; hu DLL4 ECD
- T1 sequence (Q9NR61 27-529 limits assumed): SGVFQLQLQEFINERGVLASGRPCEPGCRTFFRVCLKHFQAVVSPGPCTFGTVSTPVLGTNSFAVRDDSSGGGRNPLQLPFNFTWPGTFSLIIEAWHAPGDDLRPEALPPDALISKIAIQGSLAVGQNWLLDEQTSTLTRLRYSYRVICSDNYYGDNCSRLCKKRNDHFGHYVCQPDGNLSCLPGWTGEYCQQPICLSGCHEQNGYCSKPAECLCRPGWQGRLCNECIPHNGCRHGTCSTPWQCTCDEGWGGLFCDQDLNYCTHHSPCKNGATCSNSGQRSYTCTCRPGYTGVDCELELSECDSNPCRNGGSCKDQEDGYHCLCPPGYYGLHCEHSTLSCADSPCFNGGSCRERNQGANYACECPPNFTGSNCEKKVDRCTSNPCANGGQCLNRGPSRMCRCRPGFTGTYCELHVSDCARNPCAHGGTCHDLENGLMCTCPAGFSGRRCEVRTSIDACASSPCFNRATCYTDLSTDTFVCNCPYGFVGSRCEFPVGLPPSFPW
- procedureText: SPR (Biacore)
Numbers only; they are read as M⁻¹ s⁻¹.

binder | kon, M⁻¹ s⁻¹
h1A11.A2 (antibody, V domains shown, also called h1A11VH.1 / h1A11.A2 VL) VH: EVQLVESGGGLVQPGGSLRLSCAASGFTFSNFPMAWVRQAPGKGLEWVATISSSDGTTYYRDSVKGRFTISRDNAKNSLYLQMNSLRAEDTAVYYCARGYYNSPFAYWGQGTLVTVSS VL: DIQMTQSPSSLSASVGDRVTITCRASQDIYINLAWYQQKPGKSPKLLIFDTNDLADGVPSRFSGSGSGTDFTLTISSLQPEDFATYYCQQYDYVPPTFGQGTKLEIK | 142000

Q: Could you share which kon value was measured for h1A11.H2 (antibody, V domains shown, also called h1A11.H2 VH / h1A11.E12 VL) VH: EVQLVESGGGLVQPGGSLRLSCAASGFTFGNFPMSWVRQAPGKGLEWVASISSSDSWATIGDSVKGRFTISRDNAKNSLYLQMNSLRAEDTAVYYCARGYYNSPFAFWGQGTLVTVSS VL: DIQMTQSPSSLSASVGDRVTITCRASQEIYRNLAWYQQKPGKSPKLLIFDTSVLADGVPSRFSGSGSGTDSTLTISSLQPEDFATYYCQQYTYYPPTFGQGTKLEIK ?
A: 143000

Q: Could you tell me which kon is on file for h1A11.B5 (antibody, V domains shown, also called h1A11.B5 VH / h1A11.B5 VL) VH: EVQLVESGGGLVQPGGSLRLSCAASGFTFRYFPMSWVRQAPGKGLEWVASISGSDGWASYRDSVKGRFTISRDNAKNSLYLQMNSLRAEDTAVYYCARGYYNSPFASWGQGTLVTVSS VL: DIQMTQSPSSLSASVGDRVTITCRASQDIWNNLAWYQQKPGKSPKLLIFDTSYLADGVPSRFSGSGSGTDFTLTISSLQPEDFATYYCQQYDWYPPTFGQGTKLEIK ?
A: 130000

Q: Can you share its kon? I mean this binder: h1A11.A12 (antibody, V domains shown, also called h1A11VH.1 / h1A11.A12 VL) VH: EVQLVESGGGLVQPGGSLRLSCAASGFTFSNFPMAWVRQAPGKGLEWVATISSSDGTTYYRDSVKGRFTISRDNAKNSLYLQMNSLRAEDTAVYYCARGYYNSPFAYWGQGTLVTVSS VL: DIQMTQSPSSLSASVGDRVTITCRASQDIYYNLAWYQQKPGKSPKLLIFDTSSLADGVPSRFSGSGSGTDFTLTISSLQPEDFATYFCQQYDWYPPTFGQGTKLEIK
A: 173000

Q: # input binder: h1A11.A11 (antibody, V domains shown, also called h1A11.A11 VH / h1A11VL.1) VH: EVQLVESGGGLVQPGGSLRLSCAASGFTFRHFPMAWVRQAPGKGLEWVATISSSDDWPNYRDSVKGRFTISRDNAKSSLYLQMNSLRAEDTAVYYCSRGYYNSPFAYWGQGTLVTVSS VL: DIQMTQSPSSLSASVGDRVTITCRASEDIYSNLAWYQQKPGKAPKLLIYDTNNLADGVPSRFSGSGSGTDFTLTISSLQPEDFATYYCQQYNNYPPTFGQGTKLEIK ; wanted: its kon
A: 183000

Every entry's value here was drawn from patent US20110217237A1.
